From: patent US12234233B2

- runDescription: Pharmacokinetic evaluation in rats
- Type: in vivo, male SD rats
- condition: Sprague-Dawley, rat, plasma, po; male SD rats, gavage 60.0 mg/kg
assayEndpoint: Tmax (h)
Just the number please, in h, no unit attached.

Tmax reported for this molecule CCc1cc2c(N3CCC(C)(OC)CC3)c(C#N)c(=O)[nH]c2cn1 [Crystal form I] : 1.67

---

- runDescription: Stability test of different crystal forms
- Format: physicochemical
- condition: Placed at 60° C. for 5 days
assayEndpoint: Content (%)

# compound, measValue
records = [
    ("CCc1cc2c(N3CCC(C)(OC)CC3)c(C#N)c(=O)[nH]c2cn1 [Crystal form VI]", 99.8),
    ("CCc1cc2c(N3CCC(C)(OC)CC3)c(C#N)c(=O)[nH]c2cn1 [Crystal form VII]", 99.9),
    ("CCc1cc2c(N3CCC(C)(OC)CC3)c(C#N)c(=O)[nH]c2cn1 [Crystal form III]", 99.9),
    ("CCc1cc2c(N3CCC(C)(OC)CC3)c(C#N)c(=O)[nH]c2cn1 [Crystal form I]", 99.8),
]
